- Tgt: Sphingosine 1-phosphate receptor 2 (Homo sapiens) (UniProt O95136)
- Sequence (O95136 whole entry, looked up): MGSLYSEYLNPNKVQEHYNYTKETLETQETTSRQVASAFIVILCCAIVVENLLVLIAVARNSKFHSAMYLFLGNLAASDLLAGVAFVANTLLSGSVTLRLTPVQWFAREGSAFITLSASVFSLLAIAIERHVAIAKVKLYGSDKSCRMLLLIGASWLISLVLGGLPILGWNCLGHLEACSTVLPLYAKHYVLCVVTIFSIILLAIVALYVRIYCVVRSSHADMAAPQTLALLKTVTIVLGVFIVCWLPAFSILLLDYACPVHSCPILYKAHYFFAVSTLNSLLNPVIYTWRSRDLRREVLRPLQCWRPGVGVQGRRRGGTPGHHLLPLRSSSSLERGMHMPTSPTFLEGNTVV
- Experimental Protocol: activation of human S1P2 receptor – cell-based, primary screen (AID 729);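 also: 0% = vehicle low control and 100% = maximal reference agonist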
- Experimental Parameters: S1P2-expressing cell line, agonist reporter read-out; at 4.5 µM; active compounds read high
The campaign covered roughly 97,000 compounds. About 450 (0.46%) were called active. The sample as a whole holds a higher share of actives than the screen did.
Readout Kind: activation (%)
A number alone suffices; assume %.

Some solved cases for reference:
Field request: activation | item: COc1ccc(C2C(C(C)=O)=C(O)C(=O)N2c2nccs2)cc1 (stereo unspecified)
-0.54

Field request: activation | item: COc1ccc(C(=O)Nc2ccc(F)cc2F)cc1
-5.08

Field request: activation | item: COc1ccc(CSc2nc(N3CCOCC3)c3c(c2C#N)CC(C)(C)OC3)cc1
-4.98

Field request: activation | item: CC12CN3CC(C)(CN(C1)C3c1ccc(Cl)cc1Cl)C2=O (stereo unspecified)
-3.81

Field request: activation | item: CNc1nc(SC)nc(N(C#N)CC(=O)OC)n1
-6.48

More entries:
Field request: activation | item: CN1CCN(C(=O)Cn2c(C(F)(F)F)nc3ccccc32)CC1
-7.46

Field request: activation | item: Cn1nnnc1SCC(=O)Nc1ccccc1C(=O)NC1CC1
-4.5

Field request: activation | item: CC(C)(C)c1ccc(OC2=CS(=O)(=O)c3ccccc32)cc1
-6.02

Field request: activation | item: CC(C)c1nc(N2CCOCC2)c(C#N)c2c1COC(C)(C)C2
-3.4

Field request: activation | item: COc1ccccc1C(c1nnnn1C(C)(C)C)N1CCN(Cc2ccccc2)CC1 (stereo unspecified)
-7.69

Field request: activation | item: Cc1nc(Cl)c2oc3ccccc3c2n1
1.01

Field request: activation | item: Cc1ccc(C2C(C#N)C(C#N)N3CCCN23)cc1 (stereo unspecified)
-4.89

Field request: activation | item: O=C(Nc1ccc(Br)c2cccnc12)c1ccc(Cn2cc([N+](=O)[O-])cn2)o1
-1.75

Field request: activation | item: CCOc1ccccc1C1C(C(=O)OC)=CN(C)C=C1C(=O)OC
25.5

Field request: activation | item: CCOc1c(Cl)cc(/C=N/O)cc1OC
-3.93

Field request: activation | item: Cc1nnc(SC(C)C(=O)Nc2ccc(S(=O)(=O)NC3CCCCC3)cc2)s1 (stereo unspecified)
-4.5

Field request: activation | item: CSc1nc(-c2ccco2)nn1C(=O)CCc1ccccc1
-4.35

Field request: activation | item: CCN(CC)CCCNC(=O)CCc1ccccc1
-2.5

Field request: activation | item: CCOc1ccccc1N(CC(=O)Nc1ccccc1C(=O)OC)S(C)(=O)=O
-7.41

Field request: activation | item: CCc1nc(Nc2ccc3nccnc3c2)c2oc3ccccc3c2n1
46.5
